Values compiled from patent US20250222126A1.

Molecular target: Spike Delta (SARS-CoV-2)
experimental endpoint: pKd
# pKd is unitless: minus log10 of the molar concentration; print number only

Check out these entries, answers already filled in.
binder | pKd
2-Arm (designed binder) LCB1 mini-binder coupled to a DNA handle that is hybridised to an arm of a 3-helix-bundle DNA nanostructure: DKEWILQKIYEIMRLLDELGHAEASMRVSDLIYEFMKKGDERLLEEAERLLEEVER | 9.85
1-Arm (designed binder) LCB1 mini-binder coupled to a DNA handle that is hybridised to one arm of a 3-helix-bundle DNA nanostructure: DKEWILQKIYEIMRLLDELGHAEASMRVSDLIYEFMKKGDERLLEEAERLLEEVER | 9.85

Please look at the following binder next.
Identify measured pKd associated with Tri-pdbody (designed binder, also called 3-Arm; 3arm) LCB1 mini-binder coupled to a DNA handle that is hybridised to an arm of a 3-helix-bundle DNA nanostructure: DKEWILQKIYEIMRLLDELGHAEASMRVSDLIYEFMKKGDERLLEEAERLLEEVER
10.00
